Target: T1, HLA-A2/E6 (29-38) tetramer (human; HPV 16)
T1 construct: also called E6(29-38) peptide-MHC tetramer; E6(29-38)-loaded tetramer
Assay: tetramer flow cytometry; transfected 1:1 CD4+ and CD4+/CD8+ Jurkat-derived cells;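 note: cell mixtures transiently transfected with TCR-encoding plasmids, analysed by flow cytometry 48 h later after HLA-A*02:01 E6 tetramer staining combined with anti-CD8 antibody co-staining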
Please use yes (1) for % cells in E6 tet+/CD8- quadrant under 20% and no (0) for everything else, ties included.

### Prompt % cells in E6 tet+/CD8- quadrant under 20%? Item: TCR 15 (codon optimized, cysteine modified version) (TCR, V domains shown) V domain 1: AQKITQTQPGMFVQEKEAVTLDCTYDTSDQSYGLFWYKQPSSGEMIFLIYQGSYDEQNATEGRYSLNFQKARKSANLVISASQLGDSAMYFCAMKPGGYNKLIFGAGTRLAVHP V domain 2: DAGVIQSPRHEVTEMGQEVTLRCKPISGHNSLFWYRQTMMRGLELLIYFNNNVPIDDSGMPEDRFSAKMPNASFSTLKIQPSEPRDSAVYFCASSLVGRSRTEQYFGPGTRLTVTE
### Response no (0)

### Prompt Would you kindly repeat that for TCR 21 (codon optimized, cysteine modified version) (TCR, V domains shown) V domain 1: AQKITQTQPGMFVQEKEAVTLDCTYDTSDQSYGLFWYKQPSSGEMIFLIYQGSYDEQNATEGRYSLNFQKARKSANLVISASQLGDSAMYFCAMREGRVTGGGNKLTFGTGTQLKVEL V domain 2: NAGVTQTPKFQVLKTGQSMTLQCAQDMNHNSMYWYRQDPGMGLRLIYYSASEGTTDKGEVPNGYNVSRLNKREFSLRLESAAPSQTSVYFCASRPWGNQNTEAFFGQGTRLTVVE ?
### Response no (0)

### Prompt TCR 17 (codon optimized, cysteine modified version) (TCR, V domains shown) V domain 1: AQKITQTQPGMFVQEKEAVTLDCTYDTSDPSYGLFWYKQPSSGEMIFLIYQGSYDQQNATEGRYSLNFQKARKSANLVISASQLGDSAMYFCAMREGRGDKIIFGKGTRLHILP V domain 2: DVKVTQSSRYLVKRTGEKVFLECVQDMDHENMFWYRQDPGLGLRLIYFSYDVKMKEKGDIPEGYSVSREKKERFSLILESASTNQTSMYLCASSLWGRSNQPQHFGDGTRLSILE , same question.
### Response no (0)

### Prompt Moving on to TCR 29 (codon optimized, cysteine modified version) (TCR, V domains shown) V domain 1: AQKITQTQPGMFVQEKEAVTLDCTYDTSDQSYGLFWYKQPSSGEMIFLIYQGSYDEQNATEGRYSLNFQKARKSANLVISASQLGDSAMYFCAMRLNTGTASKLTFGTGTRLQVTL V domain 2: DGGITQSPKYLFRKEGQNVTLSCEQNLNHDAMYWYRQDPGQGLRLIYYSQIVNDFQKGDIAEGYSVSREKKESFPLTVTSAQKNPTAFYLCASSPWGRATNEQFFGPGTRLTVLE
### Response no (0)

### Prompt Now consider TCR 26 (codon optimized, cysteine modified version) (TCR, V domains shown) V domain 1: AQKITQTQPGMFVQEKEAVTLDCTYDTSDQSYGLFWYKQPSSGEMIFLIYQGSYDEQNATEGRYSLNFQKARKSANLVISASQLGDSAMYFCAMRDARNNDMRFGAGTRLTVKP V domain 2: NAGVTQTPKFRVLKTGQSMTLLCAQDMNHEYMYWYRQDPGMGLRLIHYSVGEGTTAKGEVPDGYNVSRLKKQNFLLGLESAAPSQTSVYFCASSYYASGRNYEQYFGPGTRLTVTE and answer again.
### Response no (0)

### Prompt Input TCR 30 (codon optimized, cysteine modified version) (TCR, V domains shown) V domain 1: DAKTTQPPSMDCAEGRAANLPCNHSTISGNEYVYWYRQIHSQGPQYIIHGLKNNETNEMASLIITEDRKSSTLILPHATLRDTAVYYCIVRGTSVLQGNEKLTFGTGTRLTIIP V domain 2: EPEVTQTPSHQVTQMGQEVILRCVPISNHLYFYWYRQILGQKVEFLVSFYNNEISEKSEIFDDQFSVERPDGSNFTLKIRSTKLEDSAMYFCASSRQPSSGNTIYFGEGSWLTVVE
### Response yes (1)

### Prompt Another binder: TCR 23 (codon optimized, cysteine modified version) (TCR, V domains shown) V domain 1: AQKITQTQPGMFVQEKEAVTLDCTYDTSDQSYGLFWYKQPSSGEMIFLIYQGSYDEQNATEGRYSLNFQKARKSANLVISASQLGDSAMYFCAMSPPGGSARQLTFGSGTQLTVLP V domain 2: DVKVTQSSRYLVKRTGEKVFLECVQDMDHENMFWYRQDPGLGLRLIYFSYDVKMKEKGDIPEGYSVSREKKERFSLILESASTNQTSMYLCASSPWGQSNQPQHFGDGTRLSILE
### Response no (0)

### Prompt Follow-up entry: TCR 25 (codon optimized, cysteine modified version) (TCR, V domains shown) V domain 1: AQKITQTQPGMFVQEKEAVTLDCTYDTSDQSYGLFWYKQPSSGEMIFLIYQGSYDEQNATEGRYSLNFQKARKSANLVISASQLGDSAMYFCAMREGSLTGGGNKLTFGTGTQLKVEL V domain 2: DVKVTQSSRYLVKRTGEKVFLECVQDMDHENMFWYRQDPGLGLRLIYFSYDVKMKEKGDIPEGYSVSREKKERFSLILESASTNQTSMYLCASSLWGQSNQPQHFGDGTRLSILE
### Response yes (1)

### Prompt Similarly, TCR 19 (codon optimized, cysteine modified version) (TCR, V domains shown) V domain 1: AQKITQTQPGMFVQEKEAVTLDCTYDTSDQSYGLFWYKQPSSGEMIFLIYQGSYDEQNATEGRYSLNFQKARKSANLVISASQLGDSAMYFCAMRENTGTASKLTFGTGTRLQVTL V domain 2: DVKVTQSSRYLVKRTGEKVFLECVQDMDHENMFWYRQDPGLGLRLIYFSYDVKMKEKGDIPEGYSVSREKKERFSLILESASTNQTSMYLCASSSWGQSTGEQYFGPGTRLTVTE ?
### Response no (0)

### Prompt How about this binder: TCR 27 (codon optimized, cysteine modified version) (TCR, V domains shown) V domain 1: DAKTTQPNSMESNEEEPVHLPCNHSTISGTDYIHWYRQLPSQGPEYVIHGLTSNVNNRMASLAIAEDRKSSTLILHRATLRDAAVYYCILRVPPQSGGYQKVTFGTGTKLQVIP V domain 2: NAGVTQTPKFQVLKTGQSMTLQCAQDMNHNSMYWYRQDPGMGLRLIYYSASEGTTDKGEVPNGYNVSRLNKREFSLRLESAAPSQTSVYFCASSEFGSLNEKLFFGSGTQLSVLE
### Response yes (1)

### Prompt Try this binder next: TCR 20 (codon optimized, cysteine modified version) (TCR, V domains shown) V domain 1: AQKVTQAQTEISVVEKEDVTLDCVYETRDTTYYLFWYKQPPSGELVFLIRRNSFDEQNEISGRYSWNFQKSTSSFNFTITASQVVDSAVYFCALWTGANNLFFGTGTRLTVIP V domain 2: GAVVSQHPSRVICKSGTSVKIECRSLDFQATTMFWYRQFPKQSLMLMATSNEGSKATYEQGVEKDKFLINHASLTLSTLTVTSAHPEDSSFYICSASSLARRSYEQYFGPGTRLTVTE
### Response no (0)

Origin of values: patent US20190225692A1
